meta.source: ChEMBL document CHEMBL1155793

# METHOD_SUMMARY: Cytotoxicity against human MT4 cells
# Format: cell-based
METRIC: CC50

In the examples that follow, each entry is paired with its recorded CC50.
Cc1cn([C@H]2C[C@H](N=[N+]=[N-])[C@@H](COP(=O)(OCCSC(=O)C(C)(C)C)Oc3ccccc3)O2)c(=O)[nH]c1=O (stereo partly specified) | > 10 µM
Cc1cn([C@H]2C[C@H](N=[N+]=[N-])[C@@H](COP(=O)(OCCSC(=O)C(C)(C)CO)Oc3ccccc3)O2)c(=O)[nH]c1=O (stereo partly specified) | > 130 µM
Cc1cn([C@H]2C[C@H](N=[N+]=[N-])[C@@H](CO)O2)c(=O)[nH]c1=O | > 100 µM
Cc1cn([C@H]2C[C@H](N=[N+]=[N-])[C@@H](COP(=O)(OCCSC(=O)C(C)(C)N)Oc3ccccc3)O2)c(=O)[nH]c1=O (stereo partly specified) | > 120 µM
Cc1cn([C@H]2C[C@H](N=[N+]=[N-])[C@@H](COP(=O)(OCCSC(=O)C(C)(CO)CO)Oc3ccccc3)O2)c(=O)[nH]c1=O (stereo partly specified) | > 150 µM

Request: Item Cc1cn([C@H]2C[C@H](N=[N+]=[N-])[C@@H](COP(=O)(OCCSC(=O)[C@@H](N)C(C)C)Oc3ccccc3)O2)c(=O)[nH]c1=O (stereo partly specified) : provide CC50
Response: > 120 µM

====

Below, each entry is listed with its recorded CC50.
# METHOD_SUMMARY: Cytotoxicity against human CEM-SS cells
# Assay type: cell-based

Cc1cn([C@H]2C[C@H](N=[N+]=[N-])[C@@H](COP(=O)(OCCSC(=O)C(C)(C)CO)Oc3ccccc3)O2)c(=O)[nH]c1=O (stereo partly specified) | > 130 µM

Request: Item Cc1cn([C@H]2C[C@H](N=[N+]=[N-])[C@@H](CO)O2)c(=O)[nH]c1=O [ZIDOVUDINE] : provide CC50
Response: > 100 µM

Request: Item Cc1cn([C@H]2C[C@H](N=[N+]=[N-])[C@@H](COP(=O)(OCCSC(=O)C(C)(C)N)Oc3ccccc3)O2)c(=O)[nH]c1=O (stereo partly specified) : provide CC50
Response: > 120 µM

Request: Item Cc1cn([C@H]2C[C@H](N=[N+]=[N-])[C@@H](COP(=O)(OCCSC(=O)[C@@H](N)C(C)C)Oc3ccccc3)O2)c(=O)[nH]c1=O (stereo partly specified) : provide CC50
Response: > 120 µM

Request: Item Cc1cn([C@H]2C[C@H](N=[N+]=[N-])[C@@H](COP(=O)(OCCSC(=O)C(C)(C)C)Oc3ccccc3)O2)c(=O)[nH]c1=O (stereo partly specified) : provide CC50
Response: > 10 µM

Request: Item Cc1cn([C@H]2C[C@H](N=[N+]=[N-])[C@@H](COP(=O)(OCCSC(=O)C(C)(CO)CO)Oc3ccccc3)O2)c(=O)[nH]c1=O (stereo partly specified) : provide CC50
Response: > 150 µM

====

Below, each entry is listed with its recorded CC50.
# METHOD_SUMMARY: Cytotoxicity against human thymidine kinase-deficient CEM cells
# Format: cell-based, CCRF-CEM

In the examples that follow, each entry is paired with its recorded CC50.
Cc1cn([C@H]2C[C@H](N=[N+]=[N-])[C@@H](COP(=O)(OCCSC(=O)C(C)(C)CO)Oc3ccccc3)O2)c(=O)[nH]c1=O (stereo partly specified) | > 130 µM
Cc1cn([C@H]2C[C@H](N=[N+]=[N-])[C@@H](COP(=O)(OCCSC(=O)C(C)(CO)CO)Oc3ccccc3)O2)c(=O)[nH]c1=O (stereo partly specified) | > 150 µM
Cc1cn([C@H]2C[C@H](N=[N+]=[N-])[C@@H](COP(=O)(OCCSC(=O)C(C)(C)N)Oc3ccccc3)O2)c(=O)[nH]c1=O (stereo partly specified) | > 120 µM
Cc1cn([C@H]2C[C@H](N=[N+]=[N-])[C@@H](COP(=O)(OCCSC(=O)[C@@H](N)C(C)C)Oc3ccccc3)O2)c(=O)[nH]c1=O (stereo partly specified) | > 120 µM
Cc1cn([C@H]2C[C@H](N=[N+]=[N-])[C@@H](COP(=O)(OCCSC(=O)C(C)(C)C)Oc3ccccc3)O2)c(=O)[nH]c1=O (stereo partly specified) | > 10 µM

Request: Item Cc1cn([C@H]2C[C@H](N=[N+]=[N-])[C@@H](CO)O2)c(=O)[nH]c1=O : provide CC50
Response: > 100 µM

====

Below, each entry is listed with its recorded half-life.
# METHOD_SUMMARY: Chemical stability in RPMI1640 medium at pH 7.5
# Format: physicochemical

In the examples that follow, each entry is paired with its recorded half-life.
Cc1cn([C@H]2C[C@H](N=[N+]=[N-])[C@@H](COP(=O)(OCCSC(=O)[C@@H](NC(=O)OC(C)(C)C)C(C)C)Oc3ccccc3)O2)c(=O)[nH]c1=O (some centres undefined) | > 13000 min
Cc1cn([C@H]2C[C@H](N=[N+]=[N-])[C@@H](COP(=O)(OCCSC(=O)C(C)(C)N)Oc3ccccc3)O2)c(=O)[nH]c1=O (some centres undefined) | 6 min
Cc1cn([C@H]2C[C@H](N=[N+]=[N-])[C@@H](COP(=O)(OCCSC(=O)[C@@H](N)C(C)C)Oc3ccccc3)O2)c(=O)[nH]c1=O (some centres undefined) | < 1 min

Here's the next entry for you.
Request: Item Cc1cn([C@H]2C[C@H](N=[N+]=[N-])[C@@H](COP(=O)(OCCSC(=O)C(C)(C)NC(=O)OC(C)(C)C)Oc3ccccc3)O2)c(=O)[nH]c1=O (some centres undefined) : provide half-life
Response: > 17300 min

====

Below, each entry is listed with its recorded half-life.
# METHOD_SUMMARY: Chemical stability in water at pH 6.8
# Format: physicochemical

In the examples that follow, each entry is paired with its recorded half-life.
Cc1cn([C@H]2C[C@H](N=[N+]=[N-])[C@@H](COP(=O)(OCCSC(=O)C(C)(C)NC(=O)OC(C)(C)C)Oc3ccccc3)O2)c(=O)[nH]c1=O (some centres undefined) | > 20 days
Cc1cn([C@H]2C[C@H](N=[N+]=[N-])[C@@H](COP(=O)(OCCSC(=O)[C@@H](N)C(C)C)Oc3ccccc3)O2)c(=O)[nH]c1=O (some centres undefined) | 76 days
Cc1cn([C@H]2C[C@H](N=[N+]=[N-])[C@@H](COP(=O)(OCCSC(=O)[C@@H](NC(=O)OC(C)(C)C)C(C)C)Oc3ccccc3)O2)c(=O)[nH]c1=O (some centres undefined) | > 40 days

Request: Item Cc1cn([C@H]2C[C@H](N=[N+]=[N-])[C@@H](COP(=O)(OCCSC(=O)C(C)(C)N)Oc3ccccc3)O2)c(=O)[nH]c1=O (some centres undefined) : provide half-life
Response: > 6 days

====

Below, each entry is listed with its recorded half-life.
# METHOD_SUMMARY: Stability in human CEM-SS cell extracts
# Format: ADME, cell-based
Form entry: value (h) — number only.

Cc1cn([C@H]2C[C@H](N=[N+]=[N-])[C@@H](COP(=O)(OCCSC(=O)C(C)(C)NC(=O)OC(C)(C)C)Oc3ccccc3)O2)c(=O)[nH]c1=O (some centres not stated) | 40.8
Cc1cn([C@H]2C[C@H](N=[N+]=[N-])[C@@H](COP(=O)(OCCSC(=O)C(C)(C)C)Oc3ccccc3)O2)c(=O)[nH]c1=O (some centres not stated) | 1.5
Cc1cn([C@H]2C[C@H](N=[N+]=[N-])[C@@H](COP(=O)(OCCSC(=O)C(C)(CO)CO)Oc3ccccc3)O2)c(=O)[nH]c1=O (some centres not stated) | 178
Cc1cn([C@H]2C[C@H](N=[N+]=[N-])[C@@H](COP(=O)(OCCSC(=O)[C@@H](NC(=O)OC(C)(C)C)C(C)C)Oc3ccccc3)O2)c(=O)[nH]c1=O (some centres not stated) | 106
Cc1cn([C@H]2C[C@H](N=[N+]=[N-])[C@@H](COP(=O)(OCCSC(=O)C(C)(C)N)Oc3ccccc3)O2)c(=O)[nH]c1=O (some centres not stated) | 0.133

Here's the next entry for you.
Request: Item Cc1cn([C@H]2C[C@H](N=[N+]=[N-])[C@@H](COP(=O)(OCCSC(=O)C(C)(C)CO)Oc3ccccc3)O2)c(=O)[nH]c1=O (some centres not stated) : provide half-life
Response: 14.8

====

Below, each entry is listed with its recorded solubility.
# METHOD_SUMMARY: Aqueous solubility of the compound
# Format: physicochemical
Form entry: value (µg/mL) — number only.

Cc1cn([C@H]2C[C@H](N=[N+]=[N-])[C@@H](COP(=O)(OCCSC(=O)C(C)(C)C)Oc3ccccc3)O2)c(=O)[nH]c1=O (stereo partly drawn) | 57

Request: Item Cc1cn([C@H]2C[C@H](N=[N+]=[N-])[C@@H](COP(=O)(OCCSC(=O)C(C)(CO)CO)Oc3ccccc3)O2)c(=O)[nH]c1=O (stereo partly drawn) : provide solubility
Response: 60600

Request: Item Cc1cn([C@H]2C[C@H](N=[N+]=[N-])[C@@H](COP(=O)(OCCSC(=O)C(C)(C)CO)Oc3ccccc3)O2)c(=O)[nH]c1=O (stereo partly drawn) : provide solubility
Response: 6640
